These data points were gathered from patent EP4671273A1.

kon values by entry
measured_on: T1, Recombinant hIL-21-Fc (AcroBiosystems) (human, UniProt Q9HBE4 30-162)
T1 construct: bought; also called rhIL-21; not shown: Fc of the bought reagent, not described
experiment: SPR, Fab on captured rhIL-21-Fc

binder	kon [M⁻¹ s⁻¹]
ZAP122m10 Fab (Fab, V domains shown, Fab) VH: QVQLQESGPGLVKPSETLSLTCTVSGGSISSDFWGWIRQPPGKGLEWIGYISSRGSTNYNPSLKRRVTISVDTSRNQFSLKLSSVTAADTAVYYCARSAGVTDFDFWGQGTLVTVSS VL: DIQMTQSPSSVSASVGDRVTITCRASQGISSWLAWYQHKPGKAPKLLIYVASSLQSGVPSRFSGSGSGTDFTLTISSLQPEDFATYYCQQANSFPATFGGGTKVEIK	256000
ZAP122m2 Fab (Fab, V domains shown, Fab) VH: QVQLQESGPGLVKPSETLSLTCTVSGGSISSDFWGWIRQPPGKGLEWIGYISSRGSTNYNPSLKRRVTISVDTSKNQFSLKLSSVTAADTAVYYCARSAGVTDFDFWGQGTLVTVSS VL: DIQMTQSPSSVSASVGDRVTITCRASQGISSWLAWYQHKPGKAPKLLIYVASSLQSGVPSRFSGSGSGTDFTLTISSLQPEDFATYYCQQANSFPLTFGGGTKVEIK	363000
ZAP122m26 Fab (Fab, V domains shown, Fab) VH: QVQLQESGPGLVKPSETLSLTCTVSGGSISSDFWGWIRQPPGKGLEWIGYISSRGSTNYNPSLKRRVTISVDTSRNQFSLKLSSVTAADTAVYYCARSAGVTDFAFWGQGTLVTVSS VL: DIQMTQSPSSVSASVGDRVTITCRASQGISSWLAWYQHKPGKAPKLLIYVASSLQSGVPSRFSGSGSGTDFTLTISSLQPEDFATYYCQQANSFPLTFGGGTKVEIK	233000
